Values from ChEMBL document CHEMBL4385592

- Test system: Right cardiac atrium
- procedure details: Negative chronotropic activity in guinea pig spontaneously beating right atrium assessed as decrease in atrial rate
- Format: tissue-based
- condition context: Cavia porcellus
pEC50: −log10 of the molar value.
quantity name: pEC50

Some solved cases for reference:
>>> data_value("CCOC(=O)C1=C(C)NC(C)=C(C(=O)OCC)C1c1c(-c2ccccc2F)nc2sccn12")
6.01
>>> data_value("CCOC(=O)C1=C(C)NC(C)=C(C(=O)OCC)C1c1c(-c2ccc(OC)c(OC)c2)nc2sc(Br)cn12")
6.51
>>> data_value("CCOC(=O)C1=C(C)NC(C)=C(C(=O)OCC)C1c1c(-c2ccc(Br)c([N+](=O)[O-])c2)nc2sccn12")
8.37
>>> data_value("CCOC(=O)C1=C(C)NC(C)=C(C(=O)OCC)C1c1c(-c2ccc(F)cc2)nc2sc(Cl)cn12")
5.76
>>> data_value("CCOC(=O)C1=C(C)NC(C)=C(C(=O)OCC)C1c1c(-c2ccc(Cl)cc2)nc2sc(Cl)cn12")
5.76

[A] COC(=O)C1=C(C)NC(C)=C(C(=O)OC)C1c1c(-c2cc(Br)c(OC)cc2OC)nc2sccn12
[B] CCOC(=O)C1=C(C)NC(C)=C(C(=O)OCC)C1c1c(-c2cc(OC)cc(OC)c2)nc2sc(Br)cn12
[C] CCOC(=O)C1=C(C)NC(C)=C(C(=O)OCC)C1c1c(-c2ccc(Cl)c([N+](=O)[O-])c2)nc2sc(C)cn12
Ordering criterion: pEC50; begin with the maximum. Use the labels to give the ranking in the order requested.
B, A, C
(B: 6.19, A: 5.78, C: 5.07)
